# tested.on: HLA-A*02:16
# procedure.summary: IEDB peptide-MHC binding, purified MHC/direct/fluorescence; filed as Kd, often an IC50 or EC50 that approximates it; bounds were set here for any values at or beyond the usual limits of such assays
# study.conditions: source organism: Zaire ebolavirus
pKd: −log10 of the molar value.
measured.attribute: pKd

Ask: Find the measured pKd of ATEDPSSGY and report it.
Reply: ≤ 4.70

----------
# tested.on: HLA-B*44:02
# procedure.summary: IEDB peptide-MHC binding, purified MHC/competitive/radioactivity; filed as Kd, often an IC50 or EC50 that approximates it; bounds were set here for any values at or beyond the usual limits of such assays
# study.conditions: source organism: Mammarenavirus lassaense
measured.attribute: pKd
Kindly note that pKd refers to -log10 of the concentration in mol/L and answer with the value alone.

Ask: Find the measured pKd of GEPKESTPM and report it.
Reply: 5.03

Ask: Find the measured pKd of SEGNATPGGY and report it.
Reply: 4.71
